Assay: solubility in aqueous solution
Format: physicochemical
OBSERVED_PROPERTY: solubility in aqueous solution, in words

CC(C)C[C@H](NC(=O)[C@H](CC(C)C)NC(=O)[C@H](Cc1c[nH]cn1)NC(=O)[C@H](CC(C)C)NC(=O)[C@H](CO)NC(=O)[C@H](Cc1c[nH]cn1)NC(=O)[C@H](Cc1ccccc1)NC(=O)[C@@H](N)CO)C(=O)N[C@@H](Cc1ccccc1)C(=O)N[C@@H](CCC(=O)O)C(=O)N[C@@H](CCC(=O)O)C(=O)N[C@@H](CCC(=O)O)C(N)=O = more soluble
CC(C)C[C@H](NC(=O)[C@H](CC(C)C)NC(=O)[C@H](Cc1c[nH]cn1)NC(=O)[C@H](CC(C)C)NC(=O)[C@H](CO)NC(=O)[C@H](Cc1c[nH]cn1)NC(=O)[C@H](Cc1ccccc1)NC(=O)[C@H](CO)NC(=O)CNC(=O)CNC(=O)[C@H](CCC(=O)O)NC(=O)[C@@H](N)CCC(=O)O)C(=O)N[C@@H](Cc1ccccc1)C(=O)N[C@@H](CCC(=O)O)C(=O)N[C@@H](CCC(=O)O)C(=O)N[C@@H](CCC(=O)O)C(N)=O = more soluble
CC(C)C[C@H](NC(=O)[C@H](CC(C)C)NC(=O)[C@H](Cc1c[nH]cn1)NC(=O)[C@H](CC(C)C)NC(=O)[C@H](CO)NC(=O)[C@H](Cc1c[nH]cn1)NC(=O)[C@H](Cc1ccccc1)NC(=O)[C@H](CO)NC(=O)CNC(=O)CNC(=O)[C@H](CCC(=O)O)NC(=O)[C@@H](N)CCC(=O)O)C(=O)N[C@@H](Cc1ccccc1)C(=O)N[C@@H](CCC(=O)O)C(N)=O = more soluble
